Overview of recorded area under the dose-response curve for various molecules
# Test system: SB.mhdgc-1
# Assay info: area under the dose-response curve of % viability (trapezoidal, 11 doses) (% viability x log10 concentration); higher = less cytotoxic
# Assay setup: SB.mhdgc-1 (hereditary c.1380delA CDH1 gastric cancer)
Please reply with the value in numeric form only.

Record summary for CC(C)C1=N[N](C\2=C1C(=O)N\C(=N2)CC3=CC=C(OCCO)C=C3)C4=C(Cl)C=CC=C4Cl (top concentration 46.0829 µM) : reported area under the dose-response curve = 274

Sure, the documented area under the dose-response curve for CN(C)C(=O)c1ccc([S+](=O)([O-])c2ccc(NC(=O)[C@@](C)(O)C(F)(F)F)c(Cl)c2)cc1 [AZD-7545] (top concentration 46.0829 µM) is 460

We now examine a further molecule.
# area under the dose-response curve of CC(C)OC(=O)C(C(=O)OC(C)C)=C1S\C=C/S1 [Malotilate] (top concentration 46.0829 µM) = 505

----------
# Test system: SB.msgc-1
# Assay info: viability at highest tested concentration (MAXR) relative to DMSO; higher = less cytotoxic
# Assay setup: SB.msgc-1 (sporadic gastric cancer)
Documented viability across a set of compounds
A number alone suffices; assume %.

# viability (compound: COC(=O)CCC1=C(C)C2=CC3=NC(=CC4=C(C)C(=C([NH]4)C=C\5N=C(C=C1[NH]2)\C(=C5C)CCC(O)=O)C=C)\C6=C\C=C(/[C@@H](C(=O)OC)[C@@]36C)C(=O)OC [Verteporfin] (top concentration 46.0829 µM) ) is 4.28

Others:
Per the records, this compound ( O=C(CCCN1CCC(O)(c2ccc(Cl)cc2)CC1)c1ccc(F)cc1 [Haloperidol] (top concentration 46.0829 µM) ) has viability equal to 97

Input CC(C)(C)Cn1c(N)nc2ccc(-c3[nH]c(C(C)(C)C)nc3-c3ccc(F)cc3)nc21 (top concentration 46.0829 µM) . Output viability: 21.3

Lookup result for O=C(O)c1ccc2cc(-c3ccc(O)c(C45CC6CC(CC(C6)C4)C5)c3)ccc2c1 [AHPN] (top concentration 46.0829 µM) ; measured viability: 15.9

Lab book: viability of COc1ccc2cc1Oc1ccc(cc1)C[C@H]1c3cc(c(OC)cc3CCN1C)Oc1c(OC)c(OC)cc3c1[C@H](C2)N(C)CC3 [Tetrandrine] (top concentration 46.0829 µM) noted as 48.5

Kindly note the recorded viability for C[C@H]1COC2=C3N1\C=C(C(O)=O)/C(=O)C3=CC(=C2N4CCN(C)CC4)F [Levofloxacin] (top concentration 46.0829 µM) , which is 105

Measured viability, COC1CCC(C(=O)c2ccc3nc4c(cc3c2)CCCO4)CC1 (configuration not stated) (top concentration 46.0829 µM) : 17.9

----------
# Tested on: SB.msgc-1
# Assay info: area under the dose-response curve of % viability (trapezoidal, 11 doses) (% viability x log10 concentration); higher = less cytotoxic
# Assay setup: SB.msgc-1 (sporadic gastric cancer)
Where a name gives a salt, the structure may show the parent alone.
Response key: y means area under the dose-response curve >= 500; n means area under the dose-response curve < 500.

Example entries and their recorded answers appear below.
## Input Has Cc1ccnc(N[S+](=O)([O-])c2ccc(NC(=O)Nc3ccc([S+](=O)([O-])Nc4nccc(C)n4)cc3)cc2)n1 (top concentration 46.0829 µM) a recorded area under the dose-response curve greater than or equal to 500?
## Output n

## Input Does the compound CCOc1ccccc1OCCNC(C)Cc1ccc(OC)c([S+](N)(=O)[O-])c1 (configuration not stated) [Tamsulosin hydrochloride] (top concentration 46.0829 µM) have recorded area under the dose-response curve that is 500 or more?
## Output y

## Input Hi, just wondering whether CN(C)c1nc(N(C)C)nc(N(C)C)n1 [Altretamine] (top concentration 46.0829 µM) shows area under the dose-response curve of 500 or higher.
## Output n

## Input Check the entry NCCc1c[nH]cn1 [Histamine dihydrochloride] (top concentration 46.0829 µM) : does area under the dose-response curve equal or exceed 500?
## Output y

## Input Could you verify whether the entry Nc1ncnc2c1ncn2[C@@H]1O[C@@H](CO)[C@H](O)[C@@H]1O [Vidarabine] (top concentration 34.4879 µM) shows area under the dose-response curve of no less than 500?
## Output y

Please look at the following compound next.
## Input Please check the record C=CCn1c(=O)c2cnc(Nc3ccc(N4CCN(C)CC4)cc3)nc2n1-c1cccc(C(C)(C)O)n1 [MK-1775] (top concentration 46.0829 µM) and state if its area under the dose-response curve is at or above 500.
## Output n

----------
area under the dose-response curve overview
# Tested on: SB.msgc-1
# Assay info: area under the dose-response curve of % viability (trapezoidal, 11 doses) (% viability x log10 concentration); higher = less cytotoxic
# Assay setup: SB.msgc-1 (sporadic gastric cancer)
Give only the figure.

A selection of reference data follows.
// recorded area under the dose-response curve for CCC[C@@H](NC(=O)[C@@H]1[C@H]2CCC[C@H]2CN1C(=O)[C@@H](NC(=O)[C@@H](NC(=O)c1cnccn1)C1CCCCC1)C(C)(C)C)C(=O)C(=O)NC1CC1 [Telaprevir] (top concentration 46.0829 µM) : 544

The measured area under the dose-response curve associated with CC(=O)OCC(=O)[C@@]12OC(C)(C)O[C@@H]1C[C@H]3[C@@H]4C[C@H](F)C/5=C/C(=O)/C=C\[C@]5(C)[C@@]4(F)[C@@H](O)C[C@]23C [Fluocinonide] (top concentration 46.0829 µM) reads 549

Kindly note the recorded area under the dose-response curve for OC[C@H]1O[C@@H](Oc2ccc(O)cc2)[C@H](O)[C@@H](O)[C@@H]1O [Arbutin] (top concentration 46.0829 µM) , which is 415

More entries:
Briefly, area under the dose-response curve measured for COc1cc(N2CCC(N3CCN(C)CC3)CC2)ccc1Nc1ncnc(Nc2ccccc2[S+](=O)([O-])C(C)C)n1 [ASP-3026] (top concentration 46.0829 µM) : 463

Documented area under the dose-response curve of Cn1cc(/C=C2\C(=O)Nc3cccnc32)c2ccccc21 (top concentration 46.0829 µM) : 517

----------
area under the dose-response curve values by entry
# Test system: SB.msgc-1
# Assay info: area under the dose-response curve of % viability (trapezoidal, 11 doses) (% viability x log10 concentration); higher = less cytotoxic
# Assay setup: SB.msgc-1 (sporadic gastric cancer)
// return just the number, without any unit appended

With SB.msgc-1 as the test system, C=C[C@H]1CN2CCC1C[C@H]2[C@H](O)c1ccnc2ccccc12 (some centres not stated) [Cinchonidine] (top concentration 46.0829 µM) showed area under the dose-response curve of 457

***
The measured area under the dose-response curve that CC[S+](=O)([O-])c1cccc(-c2cc(C(=O)NC3CCN(C)CC3)c(C)c3[nH]c4ncc(C)cc4c23)c1 [TAK-901] (top concentration 46.0829 µM) showed for SB.msgc-1 is 482

Form field area under the dose-response curve for item NC(=O)c1ncn([C@@H]2O[C@H](CO)[C@@H](O)[C@H]2O)n1 [Ribavirin] (top concentration 46.0829 µM) on SB.msgc-1: 594

Observed area under the dose-response curve on SB.msgc-1, entry CC1OC(OC/2=C(/OC3=C(C(=CC(=C3)O)O)C2=O)C4=CC=C(O)C=C4)C(O)C(OC(C)=O)C1OC(C)=O (configuration not stated) [SL-0101-1] (top concentration 46.0829 µM) , equals 536

Tested on SB.msgc-1, the item C=CCc1ccc(O)c(-c2ccc(O)c(CC=C)c2)c1 [Honokiol] (top concentration 46.0829 µM) showed area under the dose-response curve equal to 519

The molecule Cc1nc(-c2ccc(-c3ccc(C(=O)N4CCc5cc6c(cc54)C4(CCN(C)CC4)CO6)cc3)c(C)c2)no1 (top concentration 46.0829 µM) on SB.msgc-1: area under the dose-response curve was 519

SB.msgc-1 assay, molecule c1ccc2c(CN3CCNCC3)cccc2c1 [NMP] (top concentration 46.0829 µM) , recorded area under the dose-response curve = 491

# value of area under the dose-response curve, SB.msgc-1, item CC[C@H]1OC(=O)[C@H](C)[C@@H](O[C@H]2C[C@@](C)(OC)[C@@H](O)[C@H](C)O2)[C@H](C)[C@@H](O[C@@H]2O[C@@H](C)C[C@H](N(C)C)[C@H]2O)[C@](C)(O)C[C@@H](C)C(=O)[C@H](C)[C@@H](O)[C@]1(C)O [Erythromycin] (top concentration 46.0829 µM) = 515

Item: COc1cccc2cc(-c3nc(C4CCC(C(=O)O)CC4)n4ncnc(N)c34)[nH]c12 (configuration not stated) [OSI-027] (top concentration 46.0829 µM) | System: SB.msgc-1 | area under the dose-response curve: 464

Form: item CC(=O)O[C@@]12CO[C@@H]1C[C@H](O)[C@]3(C)[C@@H]2[C@H](OC(=O)C4=CC=CC=C4)[C@]5(O)C[C@H](O)/C(=C(/[C@@H](O)C3=O)C5(C)C)C [10-Deacetylbaccatin] (top concentration 46.0829 µM) ; test system SB.msgc-1; area under the dose-response curve: 448

area under the dose-response curve of CCCNCC(O)COc1ccccc1C(=O)CCc1ccccc1 (configuration not stated) [Propafenone] (top concentration 46.0829 µM) , assay on SB.msgc-1, is 553

Form field area under the dose-response curve for item Cc1cnc(Nc2ccc(CN3CCOCC3)cc2)nc1Nc1cccc([S+](=O)([O-])NC(C)(C)C)c1 [TG-46] (top concentration 46.0829 µM) on SB.msgc-1: 393
